Values were extracted from patent US20220144922A1.

Molecular target: T1, postfusion RSV F ectodomain, subtype B (respiratory syncytial virus subtype B)
T1 construct: extracellular domain; also called Postfusion subtype B
T1 sequence (P13843 26-109, chain 1 of 2): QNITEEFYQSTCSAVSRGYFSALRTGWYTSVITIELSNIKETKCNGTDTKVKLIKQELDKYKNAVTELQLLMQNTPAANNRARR
T1 sequence (P13843 147-513, chain 2 of 2): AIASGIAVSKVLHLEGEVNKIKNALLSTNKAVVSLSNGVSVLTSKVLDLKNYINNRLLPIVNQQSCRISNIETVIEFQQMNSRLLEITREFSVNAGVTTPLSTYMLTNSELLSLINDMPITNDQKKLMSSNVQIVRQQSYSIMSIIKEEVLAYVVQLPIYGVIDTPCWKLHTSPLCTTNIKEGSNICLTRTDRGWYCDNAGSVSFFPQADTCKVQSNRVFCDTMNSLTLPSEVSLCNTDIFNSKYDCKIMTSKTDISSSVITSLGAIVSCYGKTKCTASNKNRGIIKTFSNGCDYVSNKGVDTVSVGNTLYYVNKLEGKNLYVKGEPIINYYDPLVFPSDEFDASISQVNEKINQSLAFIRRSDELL
Test: BLI, IgG on sensor
pKd: −log10 of the molar value.
property-label: pKd

ADI-15640 (antibody, V domains shown, IgG; also called Antibody Number 204) VH: QVQLVESGPALVKPTQTLTLTCAFSGFSLTTRGMSVSWIRQPPGKALEWLARIDWDDDKYYSTSLKTRLTISKDTSKNQVVLTMSNMDPVDTATYYCARASLYDSGGYYLFFFDYWGQGTLVTVSS VL: DIVMTQSPSSLSASVGDRVTITCRASQSIGSYLNWYQQKPGKVPKLLIYAASNLQGGVPSRFRGSGSGTDFTLTISNLQPEDFASYYCQLSYSSLWTFGQGTKVEIK; 9.71
ADI-15601 (antibody, V domains shown, IgG) VH: EVQLLETGGGLVKPGGSLRLSCEATGFTFSDFAMSWVRQAPGKGLEWVSLIKSSDYPYYADSVRGRFTISRDNSKNTLYLRMDNLRADDTAVYYCAKDADFWSGEAYNGGYNFDSWGQGTLVTVSS VL: EIVLTQSPATLSVSPGERATLSCRASQSIGTNLAWYQQKPGQAPRLLIFGASTRATGIPARFTGSGSGTEFTLTIGSLQSEDFAVYYCQQYNQWPPITFGGGTKVEIK; 9.71
ADI-15633 (antibody, V domains shown, IgG) VH: QVQLVQSGAEVKKPGESLKISCKGSGYTFRMYWIGWARLLPGKGLEWIGIIYPGDSDTRYNPSLQGQVTMSVDKSINTAYLQWGSLKASDSAIYYCARLRLHPQSGMDVWGQGTLVTVSS VL: NFMLTQPHSVSESPGKTVVISCTRSSGSIAGYYVQWYQHRPGSSPTTVIYEDDQRPSGVPDRFSGSVDSSSNSASLTISGLKTEDEADYYCQSYDNAIWVFGGGTKLTVL; 9.96
ADI-15651 (antibody, V domains shown, IgG) VH: EVQLVESGPALVKPTQTLTLTCTVSGGVERMSVSWVRQPPGKALEWLARIDWDDDKYYNTFLKTRLTISKGTSKNEVVLTMTNMDPEDTAIYYCARTNRYDKSGYYLYYLDYWGQGTLVTVSS VL: DIQMTQSPSSLSASVGDKVTITCRASQTIASYVNWYQQHPGKAPKLLIYLASRLQSGAPSRFSGSGSGTDFTLTILNLQPEDFATYYCQQSYSSFFTFGPGTKVEIK; 9.34
ADI-15599 (antibody, V domains shown, IgG; also called Antibody Number 165) VH: EVQLLESGGGLVQPGRSLRLSCSGSGFTFGDYALSWVRQAPGKGLEWVGFIRSKAYGGTTEYAASVKGRFTISRDDSKSIAYLQMNSLKTEDTAVYYCTMAVVVPGATDAFDIWGQGTMVTVSS VL: NFMLTQPHSVSESPGKTVTISCTRSSGSIASDYVQWFQQRPGSSPATVIYQDNQRPSGVPDRFSGSIDTSSNSASLTISGLKTEDEADYYCHSYDSSNPWVFGGGTKLTVL; 9.19
